tested_on: Caspase-4 (Homo sapiens)
Sequence (P49662 81-270 limits assumed): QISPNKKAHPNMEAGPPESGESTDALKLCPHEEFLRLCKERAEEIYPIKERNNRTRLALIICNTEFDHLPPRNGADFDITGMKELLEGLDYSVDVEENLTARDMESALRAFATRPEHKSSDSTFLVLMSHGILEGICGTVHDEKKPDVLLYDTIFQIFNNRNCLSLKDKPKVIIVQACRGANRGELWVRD
Sequence (P49662 290-377 limits assumed): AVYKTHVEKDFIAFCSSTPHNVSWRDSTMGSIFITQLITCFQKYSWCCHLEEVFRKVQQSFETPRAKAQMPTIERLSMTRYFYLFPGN
method_notes: Inhibition of human recombinant N-terminal His-tagged DTT-activated caspase-4 expressed in Escherichia coli using Ac-LEVD-AMC as substrate preincubated for 30 mins followed by substrate addition by fluorescence assay
In this section we review reported pKi values for a set of compounds.
As a rule, pKi stands for the negative log10 of the concentration, concentration in M.

chemical_structure: c1c(N2CCCC2)nc(N2CCCC2)nc1N1CCN(CC2CCCCC2)CC1
tested_on: Caspase-4 (Homo sapiens)
pKi: 6.51

Reported pKi of COc1cccc(CN2CCN(c3cc(N4CCCC4)nc(N4CCCC4)n3)CC2)c1 : 6.56

Reported pKi of FC(F)(F)c1ccc(CN2CCN(c3cc(N4CCCC4)nc(N4CCCC4)n3)CC2)cc1 : 6.25

Reported pKi of c1ccc(CCN2CCN(c3cc(N4CCCC4)nc(N4CCCC4)n3)CC2)cc1 : 8.10
